This section presents molecules with their documented Euclidean distance values.
# Tested on: DU145
# methodSummary: Euclidean distance of Cell Painting phenotypic profile (signed KS, 77 features) to DMSO centroid (dimensionless distance); 5 or 10 uM (library dependent); higher = stronger phenotypic change vs DMSO (phenoactivity)
# conditionInfo: 48 h

Recorded Euclidean distance, per entry:
molecule	systemTested	val
Nc1nc2ccc(OC(F)(F)F)cc2s1 [Riluzole]	DU145	2.58
CO[C@H]1C[C@@H]2CC[C@@H](C)[C@@](O)(O2)C(=O)C(=O)N2CCCC[C@H]2C(=O)O[C@H]([C@H](C)C[C@@H]2CC[C@@H](OP(C)(C)=O)[C@H](OC)C2)CC(=O)[C@H](C)/C=C(\C)[C@@H](O)[C@@H](OC)C(=O)[C@H](C)C[C@H](C)/C=C/C=C/C=C/1C [Ridaforolimus (Deforolimus. MK-8669)]	DU145	1.3
C[C@]12CCC(=O)C=C1C=C[C@@H]1[C@@H]2CC[C@@]2(C)[C@H]1CC[C@@]21CCC(=O)O1 [Canrenone]	DU145	1.1

Here is another molecule to look at.
Record request: Euclidean distance value, item Nc1cc(C(F)(F)F)c(-c2nc(N3CCOCC3)nc(N3CCOCC3)n2)cn1 [Bimiralisib (PQR309)]
1.83

----------
# Tested on: 786-O
# methodSummary: Euclidean distance of Cell Painting phenotypic profile (signed KS, 77 features) to DMSO centroid (dimensionless distance); 5 or 10 uM (library dependent); higher = stronger phenotypic change vs DMSO (phenoactivity)
# conditionInfo: 48 h
Where a name gives a salt, the structure may show the parent alone.
reportedProperty: Euclidean distance

compound	Euclidean distance
Clc1ccc(C(Cn2ccnc2)OCc2c(Cl)cccc2Cl)c(Cl)c1 (stereo unspecified) [Isoconazole nitrate]	1.02

Record request: Euclidean distance value, item Fc1ccc([C@@H]2CCNC[C@H]2COc2ccc3c(c2)OCO3)cc1 [Paroxetine mesylate]
1.64

Same again, this time with O=c1ccc2ccc(O)c(O)c2o1
1.49

Same again, this time with C[C@@H](O)[C@H]1C(=O)N2C(C(=O)O)=C(S[C@@H]3CN[C@H](C(=O)N(C)C)C3)[C@H](C)[C@H]12 [Meropenem]
1.75

Same again, this time with CN(C)CCCOc1nn(Cc2ccccc2)c2ccccc12 [Benzydamine HCl]
1.26

Same again, this time with Nc1ccn([C@@H]2O[C@H](CO)[C@@H](O)[C@@H]2O)c(=O)n1 [Cytarabine hydrochloride]
3.21

----------
# System: OVCAR4
# methodSummary: Euclidean distance of Cell Painting phenotypic profile (signed KS, 77 features) to DMSO centroid (dimensionless distance); 5 or 10 uM (library dependent); higher = stronger phenotypic change vs DMSO (phenoactivity)
# conditionInfo: 48 h
reportedProperty: Euclidean distance
// no unit string in output, number only

Recorded Euclidean distance, per entry:
compound	Euclidean distance
O=C(NCCN1CCOCC1)Nc1nc2ccc(Sc3nnc4ccc(-c5ccc(F)cc5)nn34)cc2s1	1.15
CCCC(CCC)C(N)=O [Valpromide]	1.44

Record request: Euclidean distance value, item CC1=CC[C@@](O)(C(C)C)CC1
0.882

----------
# Test system: 786-O
# methodSummary: Euclidean distance of Cell Painting phenotypic profile (signed KS, 77 features) to DMSO centroid (dimensionless distance); 5 or 10 uM (library dependent); higher = stronger phenotypic change vs DMSO (phenoactivity)
# conditionInfo: 48 h
Structures can show the parent of a compound that is named as a salt.
This section presents molecules with their documented Euclidean distance values.
// no unit string in output, number only

Recorded Euclidean distance, per entry:
molecule	systemTested	Euclidean distance
O=C(CCCCCCC(=O)Nc1ccccc1)NO [Vorinostat (SAHA. MK0683)]	786-O	3.44
NC(=O)c1ccc(I)c([N+](=O)[O-])c1	786-O	1.06
CCCCC(=O)N(Cc1ccc(-c2ccccc2-c2nn[nH]n2)cc1)C(C(=O)O)C(C)C.CCOC(=O)C(C)CC(Cc1ccc(-c2ccccc2)cc1)NC(=O)CCC(=O)O (stereo not given)	786-O	0.856
Oc1cccc(-c2nc(N3CCOCC3)c3oc4ncccc4c3n2)c1	786-O	1.25
Cc1ccnc(NS(=O)(=O)c2ccc(N)cc2)n1	786-O	1.24
OC[C@H]1O[C@@H](c2ccc(F)c(Cc3cc4ccccc4s3)c2)[C@H](O)[C@@H](O)[C@@H]1O	786-O	0.648
CC(C)(C)NCC(O)c1cc(O)cc(O)c1 (stereo not given) [Terbutaline Sulfate]	786-O	1.21
CCN1CCCC1CNC(=O)c1cc(S(N)(=O)=O)ccc1OC (stereo not given) [Sulpiride]	786-O	0.713
Nc1c(CC(=O)O)cccc1C(=O)c1ccccc1 [Amfenac Sodium Monohydrate]	786-O	1.3
Cc1cc(NC(=O)Nc2ccc(N(C)C)cc2)c2cc(F)cc(F)c2n1	786-O	0.716

# get_value(readout= Euclidean distance, system= 786-O) for Cc1cc(Nc2cc(N3CCN(C)CC3)nc(Sc3ccc(NC(=O)C4CC4)cc3)n2)n[nH]1
2.67
